system: NCI/ADR-RES ovarian; assay: NCI tumour cell line growth inhibition, 48 h
So I've got a bunch of compounds here, and I need their GI50 values.

List GI50 for every entry below, keeping the order given.
1. Cc1c[nH]c(=O)n(Cc2nnc(CCC(=O)c3nc4ccccc4[nH]3)o2)c1=O
2. COc1ccc(C2CC(c3ccc(OC)cc3O)=NN2c2ccc(S(N)(=O)=O)cc2)cc1 (centres undefined)
3. COc1ccc(-c2cc(-c3ccc(OC)cc3)nc(NCCCNc3ccnc4cc(Cl)ccc34)n2)cc1
4. O=c1oc2ccc(Cl)cc2c(=O)n1-c1ccc(F)cc1F

A.
1. 14.7 µM
2. 8.09 µM
3. 1.62 µM
4. 2.63 µM
